The measured values listed here are drawn from the supplement of paper PMC6555819.

system: PXR:RXRa (NR concentration 270 nM, RXRa partner concentration 90 nM); test: PBM binding z-score (relative to random genomic background probes); higher = stronger binding; sequences stand for … in GC…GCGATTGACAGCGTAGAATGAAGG
Parameter threshold = 0.5. Response is True when PBM binding z-score meets or exceeds it, else False.

Below, 2 sequences whose answers are already recorded.
Q) Does the reported PBM binding z-score for `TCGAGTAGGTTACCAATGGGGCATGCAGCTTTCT` fall at or above the 0.5 mark?
A) False

Q) Check the entry `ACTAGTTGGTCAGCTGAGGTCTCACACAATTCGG` : does PBM binding z-score equal or exceed 0.5?
A) False

Continuing:
Q) Exam item: decide whether the reported PBM binding z-score for `CGTCAATGTTCAAGGTAACGTAACAGAAAGCAGC` is at least 0.5.
A) False

Q) Item `ATCTCTAGGTAACCAAGTTCAGTGGATGCCGAAC` with PBM binding z-score of 0.5 or above?
A) True

Q) Check this sequence for PBM binding z-score at or above 0.5: `CCTATTAGTTGACCATAAGGGGAACCGAAGCTCG`
A) True

Q) Form field: PBM binding z-score at least 0.5? Entry: `TCATATAGCTAAATGCTAGGTGAAAGTCCGATCT`
A) False

Q) # check: PBM binding z-score of `CGTACTAGGTCAAGGACAGTGAATCTCCGCACGC` is greater than or equal to 0.5
A) True

Q) Test whether the sequence `CGAACTACGTCAAGGACAGTGAATCTCCGCACGC` records PBM binding z-score of 0.5 or higher.
A) False

Q) For this sequence, is measured PBM binding z-score 0.5 or higher? `TCTCGGAGGACACGAAAGGTCAGAGCACGACATC`
A) True

Q) # bool: PBM binding z-score of `TCTAACAGGCCAGAGGGTCACTCAAGAGGTACGG` >= 0.5
A) True

Q) // inclusive: PBM binding z-score at least 0.5? input: `ACAGACAGGTGTGTGAAGGTAACTCAGCTGGACG`
A) False

Q) Please indicate if the recorded PBM binding z-score for `TCATATAGGTAAATGTTAGGTGAAAGTCCGATCT` meets or exceeds 0.5.
A) True

Q) Please indicate if the recorded PBM binding z-score for `CAAACTAGGTAACGAAAGGTCAAAGTCGAATGAC` meets or exceeds 0.5.
A) True

Q) Answer whether PBM binding z-score of `CGAACTAGGTCATTGACAGGACAGTGAATAGTAA` is greater than or equal to 0.5.
A) True

Q) Kindly determine if PBM binding z-score recorded for `CATTACGGGTCACTCCAGGTTATAGCATCGGAGT` is above or exactly 0.5.
A) True

Q) Has `ATATGTATGTTAAGGGTCATTCAGGTTGGTTCGC` a recorded PBM binding z-score greater than or equal to 0.5?
A) True

Q) Is it the case that `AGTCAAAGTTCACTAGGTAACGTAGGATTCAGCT` has PBM binding z-score reaching or exceeding 0.5?
A) True

Q) Assess whether reported PBM binding z-score for `TCGAGTAGTTTAGGGGCATTCAGAATGGCGTCGA` sits at 0.5 or higher.
A) False

Q) Kindly determine if PBM binding z-score recorded for `ATATGTACGTTAAGGGTCATTCAGGTTGGTTCGC` is above or exactly 0.5.
A) True

Q) Please tell me: is the sequence `CCTGCCAGGTCAATGGTCAGCTAAAGCAGCTCGC` at or over 0.5 in terms of PBM binding z-score?
A) True

Q) Is it the case that `ATCTCTAGGTAACAAATTCAGTGAAAGAGAGGAC` has PBM binding z-score reaching or exceeding 0.5?
A) False

Q) Answer whether PBM binding z-score of `GCTGCTACGTCAACTGATGGTCAGCTAAAGCTCG` is greater than or equal to 0.5.
A) False

Q) Exam item: decide whether the reported PBM binding z-score for `CAAACTAGGTCAAGAGGTCGAAGTCCGCTTCCCG` is at least 0.5.
A) True

Q) Evaluate `TCATATAGGTATACAGGTGAAAGTCCGTAAGTTA` : PBM binding z-score at minimum 0.5?
A) True

Q) Is it the case that `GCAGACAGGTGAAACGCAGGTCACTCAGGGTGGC` has PBM binding z-score reaching or exceeding 0.5?
A) True
